Measured CC50 values are reported for all entries that follow.
- test description: Cytotoxicity against human MT4 cells
- Assay type: cell-based
measured metric: CC50 (µM)

chemical_string=CCNC(=S)Nc1cccc(C(F)(F)F)c1 measure_unit=µM qualifier_symbol=> obs_value=100
chemical_string=O=C(NC(=S)Nc1cccc(C(F)(F)F)c1)c1ccccc1 measure_unit=µM qualifier_symbol=> obs_value=100
chemical_string=FC(F)(F)c1cccc(NC(=S)Nc2ccccc2)c1 measure_unit=µM qualifier_symbol== obs_value=39
chemical_string=FC(F)(F)c1cccc(NC(=S)NCc2ccco2)c1 measure_unit=µM qualifier_symbol== obs_value=43
chemical_string=CCCC[C@H]1CC[C@H](c2ccc(NC(=S)Nc3cccc(C(F)(F)F)c3)cc2)CC1 measure_unit=µM qualifier_symbol== obs_value=22
chemical_string=FC(F)(F)c1cccc(NC(=S)Nc2cccc(Br)c2)c1 measure_unit=µM qualifier_symbol== obs_value=9.2
chemical_string=CCCCc1ccc(NC(=S)Nc2cccc(C(F)(F)F)c2)c(C)c1 measure_unit=µM qualifier_symbol== obs_value=43
chemical_string=COC(=O)c1ccccc1NC(=S)Nc1cccc(C(F)(F)F)c1 measure_unit=µM qualifier_symbol=> obs_value=100
chemical_string=FC(F)(F)c1cccc(NC(S)=NCCN2CCOCC2)c1 measure_unit=µM qualifier_symbol=> obs_value=100
chemical_string=FC(F)(F)c1cccc(NC(S)=NCc2ccccc2)c1 measure_unit=µM qualifier_symbol== obs_value=45
chemical_string=Fc1ccc(NC(=S)Nc2cccc(C(F)(F)F)c2)cc1 measure_unit=µM qualifier_symbol== obs_value=31
chemical_string=FC(F)(F)c1cccc(NC(=S)Nc2ccc(Cl)c(Cl)c2)c1 measure_unit=µM qualifier_symbol== obs_value=9
chemical_string=O=[N+]([O-])c1ccc(NC(=S)Nc2cccc(C(F)(F)F)c2)cc1 measure_unit=µM qualifier_symbol== obs_value=9.2
chemical_string=COc1cccc(NC(=S)Nc2cccc(C(F)(F)F)c2)c1 measure_unit=µM qualifier_symbol== obs_value=26
chemical_string=O=C1Nc2ccc(Cl)cc2[C@@](C#CC2CC2)(C(F)(F)F)O1 measure_unit=µM qualifier_symbol== obs_value=40
chemical_string=Fc1ccccc1NC(=S)Nc1cccc(C(F)(F)F)c1 measure_unit=µM qualifier_symbol== obs_value=47
chemical_string=Fc1cccc(NC(=S)Nc2cccc(C(F)(F)F)c2)c1 measure_unit=µM qualifier_symbol== obs_value=20
chemical_string=CSCCCNC(=S)Nc1cccc(C(F)(F)F)c1 measure_unit=µM qualifier_symbol== obs_value=43
chemical_string=FC(F)(F)c1cccc(NC(=S)Nc2ccccc2Br)c1 measure_unit=µM qualifier_symbol== obs_value=36

The values you see were collected from ChEMBL document CHEMBL3616436.
